Target: ΔF508-CFTR (Homo sapiens, UniProt P13569, DEL508-508)
Sequence (P13569 with tags, fused parts or gaps DEL508-508): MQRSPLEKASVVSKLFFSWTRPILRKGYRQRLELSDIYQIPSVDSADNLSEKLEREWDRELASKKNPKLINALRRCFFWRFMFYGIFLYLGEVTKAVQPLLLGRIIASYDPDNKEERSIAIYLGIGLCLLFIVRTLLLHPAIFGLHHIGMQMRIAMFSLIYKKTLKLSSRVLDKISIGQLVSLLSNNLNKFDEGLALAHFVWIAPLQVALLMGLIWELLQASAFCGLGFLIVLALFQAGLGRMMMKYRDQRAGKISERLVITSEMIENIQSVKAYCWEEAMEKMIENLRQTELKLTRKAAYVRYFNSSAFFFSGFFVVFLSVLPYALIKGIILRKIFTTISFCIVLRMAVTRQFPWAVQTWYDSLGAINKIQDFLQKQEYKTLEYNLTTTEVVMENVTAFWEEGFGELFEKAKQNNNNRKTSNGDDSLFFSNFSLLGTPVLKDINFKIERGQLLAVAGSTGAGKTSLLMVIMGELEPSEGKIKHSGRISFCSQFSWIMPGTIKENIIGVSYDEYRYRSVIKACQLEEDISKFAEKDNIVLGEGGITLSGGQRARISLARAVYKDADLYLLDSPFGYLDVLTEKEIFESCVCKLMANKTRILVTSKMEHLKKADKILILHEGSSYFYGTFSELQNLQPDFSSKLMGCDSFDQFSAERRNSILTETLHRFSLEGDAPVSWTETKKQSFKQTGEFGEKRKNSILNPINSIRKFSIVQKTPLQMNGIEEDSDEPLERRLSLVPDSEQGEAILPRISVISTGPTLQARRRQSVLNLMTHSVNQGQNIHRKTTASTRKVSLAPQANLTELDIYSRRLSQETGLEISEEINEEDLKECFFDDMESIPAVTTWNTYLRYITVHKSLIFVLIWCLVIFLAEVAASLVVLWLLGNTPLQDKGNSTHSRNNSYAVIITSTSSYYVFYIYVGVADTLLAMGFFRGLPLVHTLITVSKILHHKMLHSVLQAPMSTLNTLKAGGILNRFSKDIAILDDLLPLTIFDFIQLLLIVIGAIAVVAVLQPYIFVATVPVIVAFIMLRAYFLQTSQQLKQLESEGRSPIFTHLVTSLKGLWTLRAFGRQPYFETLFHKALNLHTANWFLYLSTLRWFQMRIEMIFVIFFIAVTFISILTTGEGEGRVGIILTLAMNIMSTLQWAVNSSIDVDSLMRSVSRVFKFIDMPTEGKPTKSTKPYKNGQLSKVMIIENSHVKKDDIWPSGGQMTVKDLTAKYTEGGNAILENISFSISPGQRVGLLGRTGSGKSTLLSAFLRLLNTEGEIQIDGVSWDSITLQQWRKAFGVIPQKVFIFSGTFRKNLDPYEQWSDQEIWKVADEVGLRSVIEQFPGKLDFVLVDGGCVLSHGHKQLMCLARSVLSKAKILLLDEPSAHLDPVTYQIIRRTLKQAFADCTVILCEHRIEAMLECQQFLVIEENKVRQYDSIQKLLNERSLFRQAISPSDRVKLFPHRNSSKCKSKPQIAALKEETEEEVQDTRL
Assay: Membrane potential optical (FRET/VIPR) assay, identification of potentiator compounds
Conditions: Table 3; assay not given
pEC50: −log10 of the molar value.
measured attribute: pEC50

{"smiles structure": "O=C(Nc1ccc2c(c1)NCCO2)c1c[nH]c2ccccc2c1=O", "experimental result": "4.60 to 5.00"}
{"smiles structure": "COc1nc2ccccc2c(OC)c1C(=O)Nc1ccccc1C(C)(C)C", "experimental result": "4.60 to 5.00"}
{"smiles structure": "CCc1ccc2ncc(C(=O)Nc3ccc4cc[nH]c4c3)c(O)c2c1", "experimental result": "> 5.00"}
{"smiles structure": "N#Cc1c[nH]c2cc(NC(=O)c3c[nH]c4ccccc4c3=O)ccc12", "experimental result": "> 5.00"}
{"smiles structure": "O=C(Nc1cc(O)cc(C(F)(F)F)c1)c1c[nH]c2cccc(O)c2c1=O", "experimental result": "> 5.00"}

Values compiled from patent US8614327B2.
